- Tested on: HFF-1 normal skin fibroblast
- ASSAY_NAME: Cellular ATP level
- Assay type: cell-based, human
- COND: read-out: IC50 ATP
PROPERTY_NAME: IC50 (µM)
Could you give me the number in µM? Just the number is fine.

Query block: Hi! What's the reported IC50 for C(=N\Nc1nc(Nc2ccccc2)nc(N2CCOCC2)n1)/c1c[nH]c2ccccc12 on HFF-1 normal skin fibroblast?
Result block: 28

----------
- Test system: HBEC normal lung epithelial
- ASSAY_NAME: Cells with <2N DNA by FACS of permeabilized cells stained with PI
- Type: cell-based, human
- COND: read-out: IC50 DNA (50% of cells with <2N DNA)
PROPERTY_NAME: IC50

Query block: // query IC50 value for entry C(=N\Nc1nc(Nc2ccccc2)nc(N2CCOCC2)n1)/c1c[nH]c2ccccc12
Result block: 20 µM

Values were extracted from paper PMC8828683.
